Every entry's value here was drawn from patent US6156724A.

# System: concanavalin A-induced lymphoblasts (Con A splenocytes)
# protocol text: Lymphoblast viability (LbV) assay
# experimental parameters: Con A-stimulated splenocytes (lymphoblasts), MTT
Numbered stars: 1 amine (or outer) side, 2 acyl side, 3 side chain; on linkers, the order of the positions; unused ones are H or OH. Bridge positions count the residues as written; N and C are the ends. Square brackets hold non-standard residues; d marks the D form. Peptide text beside a SMILES is read from it. * marks the point of attachment. X2 = CC[C@H](C)[C@@H](N[*:1])[C@@H](O)CC(=O)O[C@@H](C(=O)[C@H](C)C(=O)[*:2])C(C)C; X1 = CC[C@H](C)[C@@H](N[*:1])[C@@H](O)CC(=O)O[C@H](C(=O)[C@H](C)C(=O)[*:2])C(C)C; X3 = CC[C@H](C)[C@H](N[*:1])[C@@H](O)CC(=O)O[C@H](C(=O)[C@H](C)C(=O)[*:2])C(C)C; X6 = CC[C@H](C)[C@@H](N[*:1])[C@H](O)CC(=O)O[C@H](C(=O)[C@H](C)C(=O)[*:2])C(C)C; NMeY = CN[C@@H](Cc1ccc(O)cc1)C(=O)O; aThr = C[C@H](O)[C@H](N)C(=O)O; NMeL = CN[C@@H](CC(C)C)C(=O)O; dNMeL = CN[C@H](CC(C)C)C(=O)O; pGlu = O=C1CC[C@@H](C(=O)O)N1; Pyruvoyl = CC(=O)C(=O)*; Cbz = O=C(OCc1ccccc1)*; Lac = C[C@H](O)C(=O)O; For = O=C*
Note that class boundaries on cytotoxicity to lymphocytes LbV, LC50 are band 1 (below 0.7 nM), band 2 (0.7 nM to below 20 nM), band 3 (20 nM or more)

Worked examples, 6 compounds total:
[
  {
    "compound": "CC[C@H](C)[C@H]1NC(=O)[C@@H](NC(=O)[C@@H](CC(C)C)N(C)C(=O)[C@@H]2CCCN2C(=O)[C@H](C)O)[C@@H](C)OC(=O)[C@H](Cc2ccc(OC)c(I)c2)N(C)C(=O)[C@@H]2CCCN2C(=O)[C@H](CC(C)C)NC(=O)[C@@H](C)C(=O)[C@H](C(C)C)OC(=O)C[C@@H]1O",
    "label": "band 2"
  },
  {
    "compound": "CC[C@H](C)[C@H]1NC(=O)[C@@H](NC(=O)[C@@H](CC(C)C)NC)[C@@H](C)OC(=O)[C@H](Cc2ccc(OC)cc2)N(C)C(=O)[C@@H]2CCCN2C(=O)[C@H](CC(C)C)NC(=O)[C@@H](C)C(=O)[C@H](C(C)C)OC(=O)C[C@@H]1O [Compound 2, Didemnin A] (H-[dNMeL]T[X1]LP[NMeY](Me); ester 2-C)",
    "label": "band 2"
  },
  {
    "compound": "CC[C@H](C)[C@H]1NC(=O)[C@@H](NC(=O)[C@@H](CC(C)C)N(C)C(C)=O)[C@@H](C)OC(=O)[C@H](Cc2ccc(OC)cc2)N(C)C(=O)[C@@H]2CCCN2C(=O)[C@H](CC(C)C)NC(=O)[C@@H](C)C(=O)[C@H](C(C)C)OC(=O)C[C@@H]1O [Compound 18, N^α -Acetyldidemnin A] (Ac-[dNMeL]T[X1]LP[NMeY](Me); ester 2-C)",
    "label": "band 1"
  },
  {
    "compound": "CC[C@H](C)[C@H]1NC(=O)[C@@H](NC(=O)[C@@H](CC(C)C)N(C)C(=O)[C@@H]2CCCN2C(=O)C(C)=O)[C@@H](C)OC(=O)[C@H](Cc2ccc(OC)cc2)N(C)C(=O)[C@@H]2CCCN2C(=O)[C@H](CC(C)C)NC(=O)[C@@H](C)C(=O)[C@H](C(C)C)OC(=O)C[C@@H]1O [Compound 30, dehydrodidemnin B] (Pyruvoyl-P[dNMeL]T[X1]LP[NMeY](Me); ester 3-C)",
    "label": "band 1"
  },
  {
    "compound": "CC[C@H](C)[C@H]1NC(=O)[C@@H](NC(=O)[C@@H](CC(C)C)NC)[C@@H](C)OC(=O)[C@H](Cc2ccc(OC)cc2)N(C)C(=O)[C@@H]2CCCN2C(=O)[C@H](CC(C)C)NC(=O)[C@@H](C)C(=O)[C@@H](C(C)C)OC(=O)C[C@@H]1O [Compound 12, Epididemnin A1] (H-[dNMeL]T[X2]LP[NMeY](Me); ester 2-C)",
    "label": "band 3"
  },
  {
    "compound": "CC[C@H](C)[C@H]1NC(=O)[C@@H](NC(=O)[C@@H](CC(C)C)N(C)C(=O)OCc2ccccc2)[C@@H](C)OC(=O)[C@H](Cc2ccc(OC)cc2)N(C)C(=O)[C@@H]2CCCN2C(=O)[C@H](CC(C)C)NC(=O)[C@@H](C)C(=O)[C@H](C(C)C)OC(=O)C[C@H]1O [Compound 4, Z-[(3R,4R,5S)Ist^2]Didemnin A] (Cbz-[dNMeL]T[X6]LP[NMeY](Me); ester 2-C)",
    "label": "band 3"
  }
]

Query: Class for CC[C@H](C)[C@@H]1NC(=O)[C@@H](NC(=O)[C@H](CC(C)C)N(C)C=O)[C@H](C)OC(=O)[C@H](Cc2ccc(OC)cc2)N(C)C(=O)[C@@H]2CCCN2C(=O)[C@H](CC(C)C)NC(=O)[C@@H](C)C(=O)[C@H](C(C)C)OC(=O)C[C@@H]1O [Compound 26, Didemnin G] (For-[NMeL][aThr][X3]LP[NMeY](Me); ester 2-C) ?
Response: band 2

Query: Class for CC[C@H](C)[C@@H](NC(=O)[C@@H](NC(=O)[C@@H](CC(C)C)NC)[C@@H](C)O)[C@@H](O)CC(=O)O[C@H](C(=O)[C@H](C)C(=O)N[C@@H](CC(C)C)C(=O)N1CCC[C@H]1C(=O)N(C)[C@@H](Cc1ccc(OC)cc1)C(=O)O)C(C)C [Compound 17, Acyclodidemnin A] (H-[dNMeL]T[X1]LP[NMeY](Me)-OH) ?
Response: band 3

Query: Class for CC[C@H](C)[C@H]1NC(=O)[C@@H](NC(=O)[C@@H](CC(C)C)N(C)C(=O)[C@@H]2CCCN2C(=O)[C@H](C)OC(=O)[C@H](CCC(N)=O)NC(=O)[C@@H]2CCC(=O)N2)[C@@H](C)OC(=O)[C@H](Cc2ccc(OC)cc2)N(C)C(=O)[C@@H]2CCCN2C(=O)[C@H](CC(C)C)NC(=O)[C@@H](C)C(=O)[C@H](C(C)C)OC(=O)C[C@@H]1O [Compound 38, Didemnin M] ([pGlu]Q[Lac]P[dNMeL]T[X1]LP[NMeY](Me); ester 6-C) ?
Response: band 1

Query: Class for CC[C@H](C)[C@H]1NC(=O)[C@@H](NC(=O)[C@@H](CC(C)C)N(C)C(=O)[C@@H]2CCCN2)[C@@H](C)OC(=O)[C@H](Cc2ccc(OC)cc2)N(C)C(=O)[C@@H]2CCCN2C(=O)[C@H](CC(C)C)NC(=O)[C@@H](C)C(=O)[C@H](C(C)C)OC(=O)C[C@@H]1O [Compound 28, N^α -(L-Pro)Didemnin A] (H-P[dNMeL]T[X1]LP[NMeY](Me); ester 3-C) ?
Response: band 2
